Each recorded value in this set is attributed to ChEMBL document CHEMBL3045922.

# Test system: Mus musculus
# protocol.text: Neurotoxicity in Mus musculus Kunming (mouse) assessed as minimal motor impairment at 300 mg/kg, ip at 0.5 hr by rotarod test
# Assay type: toxicity, organism-based
# Parameters: dose 300 mg/kg, route intraperitoneal
# assay.setup: in vivo
observed.property: Activity

// below: answered compounds
[in] Provide only the value of recorded Activity for `Cc1nncn1-c1ccc2nc(-c3ccccc3)oc2c1`
[out] Toxic

[in] Name the recorded Activity of the item `COc1ccc(-c2nncn2-c2ccc3nc(-c4ccccc4)oc3c2)cc1` in your answer.
[out] Non-toxic

[in] Supply measured Activity of `Cc1ccc(-c2nncn2-c2ccc3nc(-c4ccccc4)oc3c2)cc1` in your reply.
[out] Toxic

[in] Name the recorded Activity of the item `CCCCc1nncn1-c1ccc2nc(-c3ccccc3)oc2c1` in your answer.
[out] Non-toxic

[in] Answer with the recorded Activity of `Fc1cccc(-c2nncn2-c2ccc3nc(-c4ccccc4)oc3c2)c1` only.
[out] Non-toxic

// switching to the query compound
[in] Give Activity for the following compound: `Clc1ccc(-c2nncn2-c2ccc3nc(-c4ccccc4)oc3c2)cc1`
[out] Non-toxic
